This collection of values is drawn from patent US11236055B2.

Test: Pharmacokinetic profile in mice
Assay type: in vivo
Details: mouse; fasted male Hilltop mice, 10 mg/kg oral gavage, plasma, mean of three mice
Criterion: Cmax meeting or surpassing 20 ng/mL. Met: YES. Not met: NO.

[[record]]
compound = "Cc1cnccc1-c1cccc(C(C)(C)NS(=O)(=O)c2cccc(C(F)(F)F)c2)c1"
assignedlabel = "YES"

[[record]]
compound = "Cc1cnccc1-c1cccc(C(C)(C)N(CCCC(=O)NCS(=O)(=O)O)S(=O)(=O)c2ccccc2C(F)(F)F)c1 [Compound 20AB]"
assignedlabel = "NO"


// inclusive: Cmax at least 20 ng/mL? input: CCc1cnccc1-c1cccc(C2CN(CCCC(=O)O)CCN2S(=O)(=O)c2cccc(Cl)c2C)c1 (stereo not shown) [Compound 52AA]
YES

// inclusive: Cmax at least 20 ng/mL? input: Cc1cnccc1-c1cccc([C@H](C)N(CCCCC(=O)NCCS(=O)(=O)NCC(=O)O)S(=O)(=O)c2ccccc2C(F)(F)F)c1 [Compound 20BL]
NO

// inclusive: Cmax at least 20 ng/mL? input: Cc1cnccc1-c1cccc(C(C)(C)N(CCCC(=O)NCC(=O)O)S(=O)(=O)c2cccc(Cl)c2C)c1 [Compound 21AB]
NO

// inclusive: Cmax at least 20 ng/mL? input: "CCc1cnccc1-c1cccc(C(C)(C)N(CCCC(=O)NCCS(=O)(=O)O)S(=O)(=O)c2ccccc2C(F)(F)F)c1"
NO

// inclusive: Cmax at least 20 ng/mL? input: CCc1cnccc1-c1cccc(C2CN(C(=O)CCC(=O)O)CCN2S(=O)(=O)c2cccc(Cl)c2C)c1 (racemic)
YES

----------
Biological target: UniProt Q8TDU6
Sequence (Q8TDU6 whole entry): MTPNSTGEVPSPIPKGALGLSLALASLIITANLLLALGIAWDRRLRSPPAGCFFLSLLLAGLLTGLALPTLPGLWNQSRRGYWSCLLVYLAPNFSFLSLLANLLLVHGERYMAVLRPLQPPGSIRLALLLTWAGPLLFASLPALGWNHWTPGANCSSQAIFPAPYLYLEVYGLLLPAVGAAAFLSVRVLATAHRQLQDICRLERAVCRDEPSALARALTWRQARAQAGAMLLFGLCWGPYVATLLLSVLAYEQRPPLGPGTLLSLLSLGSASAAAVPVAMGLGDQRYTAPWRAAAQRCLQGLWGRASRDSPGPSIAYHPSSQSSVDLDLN
Assay: Human TGR5 cAMP production assay
Conditions: human TGR5, luminescent cAMP assay; coded A-D; read-out: Human TGR5 Lum. cAMP Activity (EC50)
pEC50: −log10 of the molar value.
Collected pEC50 values appear next to each entry.

Some compounds with recorded pEC50:
[[record]]
compound = "CCc1cnccc1-c1cccc(C(C)(C)NS(=O)(=O)c2ccccc2C(F)(F)F)c1"
measuredtarget = "UniProt Q8TDU6"
endpointlabel = "pEC50"
readoutvalue = "> 7.00"

[[record]]
compound = "Cc1cnccc1-c1cccc(C2(N(CCCC(=O)O)S(=O)(=O)c3cccc(Cl)c3C)COC2)c1 [Compound 16AL]"
measuredtarget = "UniProt Q8TDU6"
endpointlabel = "pEC50"
readoutvalue = "6.00 to 7.00"

[[record]]
compound = "Cc1cnccc1-c1cccc([C@H](C)N(CCCC(=O)N[C@@H](CO)C(=O)O)S(=O)(=O)c2cccc(Cl)c2C)c1 [Compound 21AI]"
measuredtarget = "UniProt Q8TDU6"
endpointlabel = "pEC50"
readoutvalue = "> 7.00"

[[record]]
compound = "CCOC(=O)CCN/C(=N/C#N)NCCCN(C(C)(C)c1cccc(-c2ccncc2C)c1)S(=O)(=O)c1cccc(Cl)c1C [Compound 25A]"
measuredtarget = "UniProt Q8TDU6"
endpointlabel = "pEC50"
readoutvalue = "> 7.00"

[[record]]
compound = "CC(C)(NS(=O)(=O)c1cccc(C(F)(F)F)c1)c1cccc(-c2ccnc(Cl)c2)c1"
measuredtarget = "UniProt Q8TDU6"
endpointlabel = "pEC50"
readoutvalue = "6.00 to 7.00"

[[record]]
compound = "Cc1cnccc1-c1cccc(C(C)(C)NS(=O)(=O)c2cccc(Cl)c2C)c1"
measuredtarget = "UniProt Q8TDU6"
endpointlabel = "pEC50"
readoutvalue = "> 7.00"


Param item = Cc1cnccc1-c1cccc(C(C)(C)N(CCCC(=O)NCC[N+](C)(C)C)S(=O)(=O)c2cccc(Cl)c2C)c1 [Compound 27AD] ; retrieve measured pEC50.
> 7.00

Param item = "COC(=O)CN(C(C)(C)c1cccc(-c2ccncc2C)c1)S(=O)(=O)c1ccccc1C(F)(F)F" ; retrieve measured pEC50.
> 7.00

Param item = Cc1cnccc1-c1cccc(C(C)(C)N(CCCC(=O)NCCN(C)C)S(=O)(=O)c2cccc(Cl)c2C)c1 [Compound 21AD] ; retrieve measured pEC50.
> 7.00
